Reference source: ChEMBL document CHEMBL4428136

experiment: Cmax in CD-1 mouse at 100 mg/kg, po administered as suspension by LC-MS/MS analysis; format: ADME, organism-based; design: dose 100 mg/kg, route oral; conditions: in vivo
measuredProperty: Cmax (µM)

1. O=C1N[C@](c2ccc(N3CCOCC3)cc2)(c2ccsc2)CC(O)=C1Sc1ccccc1Cl = 224

====

test: Protein binding in CD-1 mouse plasma; assay type: ADME, cell-free; conditions: read-out: PPB (converted)
measuredProperty: fraction unbound

1. O=C1N[C@](c2ccc(N3CCOCC3)cc2)(c2ccsc2)CC(O)=C1Sc1ccccc1Cl = 0.009
2. O=C1NC(c2ccccc2)(c2ccccc2)CC(O)=C1Sc1ccccc1Cl = 0.007

====

test: Lipophilicity, log D of the compound at pH 7.4 by high throughput method; assay type: physicochemical; details: buffer
Reported logD is given for each of the following molecules.
measuredProperty: logD

1. COC1CCN(c2ccc(C3(c4ccsc4)CC(O)=C(Sc4ccccc4Cl)C(=O)N3)cc2)CC1 (racemic) = 1.2
2. N#CC1CCN(c2ccc(C3(c4ccsc4)CC(O)=C(Sc4ccccc4Cl)C(=O)N3)cc2)CC1 (centres undefined) = 0.8
3. CC1(C)CN(c2ccc(C3(c4ccsc4)CC(O)=C(Sc4ccccc4Cl)C(=O)N3)cc2)CCO1 (centres undefined) = 1.3
4. O=C1N[C@](c2ccc(N3CCOCC3)cc2)(c2ccsc2)CC(O)=C1Sc1ccccc1Cl = 0.6

====

experiment: Protein binding in CD-1 mouse plasma; type: ADME, cell-free; settings: read-out: PPB (converted)
Below: a set of entries, each annotated with reported fraction unbound.
measuredProperty: fraction unbound

1. O=C1NC(c2ccc(N3CCCCC3)cc2)(c2ccsc2)CC(O)=C1Sc1ccccc1Cl (racemic) = < 0.001
2. O=C1NC(c2ccsc2)(c2cccc(Nc3ccc(F)cc3)c2)CC(O)=C1Sc1ccccc1Cl (racemic) = < 0.001
3. CC1CN(c2ccc(C3(c4ccsc4)CC(O)=C(Sc4ccccc4Cl)C(=O)N3)cc2)CC(C)O1 (stereo not drawn) = < 0.001
